Please go through the items and note down their Concentration of ethoxyaniline equivalents in Culex (mosquito).
# experiment.summary: Model ecosystem: distribution, ecological magnification and Biodegradability Index
# measurement.setup: Culex (mosquito); 33 days; 5.0 mg 3H-ethoxyaniline to Sorghum
One number for each entry, in ppm.

In [3]: df
Out[3]:
                                   molecule  reading
0  CCOc1ccc(NC(c2ccc(O)cc2)C(Cl)(Cl)Cl)cc1 (stereo not shown)     0.13

Batch: Concentration of ethoxyaniline equivalents in Culex (mosquito) for all items listed.
1. CCOc1ccc(NC(c2ccc(OCC)cc2)C(Cl)(Cl)Cl)cc1 (stereo not shown)
2. CCOc1ccc(N)cc1

Result:
0.28
0.01

get_value(item= CCOc1ccc(C(=O)O)cc1 , readout=Concentration of ethoxyaniline equivalents in Culex (mosquito)) returns 0.06

* * *

# System: Anopheles albimanus larvae
# experiment.summary: LC50 to Anopheles albimanus larvae
# Type: in vivo, Anopheles albimanus Weid
Would you mind telling me the reported LC50 Anopheles albimanus larvae of each entry?
Give bare numbers, in ppm.

Example entries and their recorded answers appear below.
                                   molecule  unit_name  reading
0  CCOc1ccc(NC(c2ccc(C)cc2)C(Cl)(Cl)Cl)cc1 (stereo not shown)        ppm     0.30
1  COc1ccc(C(Nc2ccc(C)cc2C)C(Cl)(Cl)Cl)cc1 (stereo not shown)        ppm    0.080
2  CCOc1ccc(NC(c2ccc(OC)cc2)C(Cl)(Cl)Cl)cc1 (stereo not shown)        ppm      1.0
3  COc1ccc(NC(c2ccc(Cl)cc2)C(Cl)(Cl)Cl)cc1 (stereo not shown)        ppm     0.37

// switching to the query molecule
// field: LC50 Anopheles albimanus larvae; key: CCOc1ccc(C(Nc2ccc(C)cc2)C(Cl)(Cl)Cl)cc1 (stereo not shown) ; value = 0.085

* * *

# Tested on: Musca domestica Rsp
# experiment.summary: Topical LD50 to adult female RSP houseflies
# measurement.setup: RSP strain; synergized with piperonyl butoxide; topical
readout.label: Topical LD50, Musca domestica Rsp, with pb (μg per g)
Numbers only, in μg per g.

Would you mind listing Topical LD50, Musca domestica Rsp, with pb for each of the following molecules?
1. Cc1ccc(NC(c2ccc(C)cc2)C(Cl)(Cl)Cl)cc1 (stereo not shown)
2. COc1ccc(NC(c2ccc(C)cc2)C(Cl)(Cl)Cl)cc1 (stereo not shown)
3. COc1ccc(C(Nc2ccc(C)cc2)C(Cl)(Cl)Cl)cc1 (stereo not shown)
4. CCOc1ccc(C(Nc2ccc(Cl)cc2)C(Cl)(Cl)Cl)cc1 (stereo not shown)
5. CCOc1ccc(NC(c2ccc(OC)cc2)C(Cl)(Cl)Cl)cc1 (stereo not shown)

Result:
1. 6.5
2. 7.5
3. 12.0
4. 13.5
5. 12.0

// input: 4 molecules below; output: Topical LD50, Musca domestica Rsp, with pb for each
1. CCCCOc1ccc(C(Nc2ccc(OC)cc2)C(Cl)(Cl)Cl)cc1 (stereo not shown)
2. CCOc1ccc(NC(c2ccc(OCC)cc2)C(Cl)(Cl)Cl)cc1 (stereo not shown)
3. COc1ccc(C(Nc2ccc(C3CCCCC3)cc2)C(Cl)(Cl)Cl)cc1 (stereo not shown)
4. COc1ccc(C(Nc2ccc(C)cc2C)C(Cl)(Cl)Cl)cc1 (stereo not shown)

Result:
1. 32.0
2. 6.5
3. 165
4. 29.0

* * *

# System: Musca domestica Snaidm
# experiment.summary: Topical LD50 to adult female SNAIDM houseflies
# measurement.setup: SNAIDM strain; synergized with piperonyl butoxide; topical
Kindly supply the reported Topical LD50, Musca domestica Snaidm, with pb values for the records listed here.
Numbers only, in μg per g.

Reference set, count: 5
>>> print(df.to_string())
                                   compound  reading
0  COc1ccc(C(Nc2ccc(C)cc2C)C(Cl)(Cl)Cl)cc1 (stereo not shown) [XXIV]     14.0
1  CCOc1ccc(C(Nc2ccc(Cl)cc2)C(Cl)(Cl)Cl)cc1 (stereo not shown) [VII]     10.5
2  COc1ccc(NC(c2ccc(N(C)C)cc2)C(Cl)(Cl)Cl)cc1 (stereo not shown) [XXV]     16.0
3  CCOc1ccc(NC(c2ccc(C)cc2)C(Cl)(Cl)Cl)cc1 (stereo not shown) [XII]     14.5
4  Clc1ccc(NC(c2ccc(Cl)cc2)C(Cl)(Cl)Cl)cc1 (stereo not shown) [Compound I]     13.5

Batch request: Topical LD50, Musca domestica Snaidm, with pb per item, same order as input.
1. CCOc1ccc(NC(c2ccccc2OCC)C(Cl)(Cl)Cl)cc1 (stereo not shown) [XX]
2. CCOc1ccc(C(Nc2ccc(C)cc2)C(Cl)(Cl)Cl)cc1 (stereo not shown) [XI]

Result:
1: 500; 2: 2.5

* * *

# experiment.summary: Model ecosystem: distribution, ecological magnification and Biodegradability Index
# measurement.setup: Gambusia (fish); 33 days; 5.0 mg 3H-ethoxyaniline to Sorghum
readout.label: Concentration of ethoxyaniline equivalents in Gambusia (fish) (ppm)
One number for each entry, in ppm.

These recorded examples may help you get a feel for the data.
                                   compound  reading
0  CCOc1ccc(NC(c2ccc(O)cc2)C(Cl)(Cl)Cl)cc1 (stereo not drawn)     0.08
1  CCOc1ccc(C(=O)C(Cl)Cl)cc1 [C2 H5 OC6 H4 C(O)CHCl2, p-ethoxydichloroacetophenone]     0.28
2                            CCOc1ccc(N)cc1     0.03

Quick one: give me Concentration of ethoxyaniline equivalents in Gambusia (fish) for each item below, same order please.
1. CCOc1ccc(C(=O)O)cc1
2. CCOc1ccc(NC(c2ccc(OCC)cc2)C(Cl)(Cl)Cl)cc1 (stereo not drawn)
3. Oc1ccc(NC(c2ccc(O)cc2)C(Cl)(Cl)Cl)cc1 (stereo not drawn)

Result:
1. 0.03
2. 0.04
3. 0.03

* * *

# Test system: Phormia regina
# experiment.summary: whole plant or invertebrate
# measurement.setup: synergized with piperonyl butoxide; topical
Record form. Attribute: Topical LD50, Phormia regina, with pb. Fill in for each entry.

Illustrative cases are given below, each with its answer.
>>> df
                                   molecule                          readout_label        reading
0  CCOc1ccc(C(Nc2ccc(Cl)cc2)C(Cl)(Cl)Cl)cc1 (stereo not shown) [VII]  Topical LD50, Phormia regina, with pb  20.0 μg per g
1  CCOc1ccc(NC(c2ccc(OC)cc2)C(Cl)(Cl)Cl)cc1 (stereo not shown) [XIV]  Topical LD50, Phormia regina, with pb  20.0 μg per g

For every record below, what is its Topical LD50, Phormia regina, with pb?
1. COc1ccc(NC(c2ccc(Cl)cc2)C(Cl)(Cl)Cl)cc1 (stereo not shown) [VI]
2. Cc1ccc(NC(c2ccc(C)cc2)C(Cl)(Cl)Cl)cc1 (stereo not shown) [IV]
3. COc1ccc(NC(c2ccc(OC)cc2)C(Cl)(Cl)Cl)cc1 (stereo not shown) [Compound II]
4. COc1ccc(C(Nc2ccc(C)cc2C)C(Cl)(Cl)Cl)cc1 (stereo not shown) [XXIV]
5. CCOc1ccc(NC(c2ccc3c(c2)OCO3)C(Cl)(Cl)Cl)cc1 (stereo not shown) [Compound XVII]

Result:
["80 μg per g", "21.0 μg per g", "35.0 μg per g", "25.0 μg per g", "32.5 μg per g"]

* * *

# System: Musca domestica Rsp
# experiment.summary: Topical LD50 to adult female RSP houseflies
# measurement.setup: Musca domestica, topical, read-out: Topical LD50, Musca domestica Rsp, Alone
readout.label: LD50

Some molecules with recorded LD50:
>>> print(df.to_string())
                                   molecule      reading
0  COc1ccc(NC(c2ccc(N(C)C)cc2)C(Cl)(Cl)Cl)cc1 (stereo not drawn)  > 500 mg/kg
1  CN(C)c1ccc(C(Nc2ccc([N+](=O)[O-])cc2)C(Cl)(Cl)Cl)cc1 (stereo not drawn)  > 500 mg/kg

Next molecule, please.
Value of measured LD50 for the entry COc1ccc(C(Nc2ccc(C3CCCCC3)cc2)C(Cl)(Cl)Cl)cc1 (stereo not drawn) : > 500 mg/kg

* * *

Exercise: for every item that follows, state its recorded SR, Musca domestica Snaidm.
# Tested on: Musca domestica Snaidm
# experiment.summary: Topical LD50 to adult female SNAIDM houseflies
# measurement.setup: synergistic ratio: LD50 alone/LD50 synergized with piperonyl butoxide

Below, each entry is followed by its recorded SR, Musca domestica Snaidm result.
>>> print(df.to_string())
                                   compound             test_system               readout_label  reading
0  CN(C)c1ccc(C(Nc2ccc([N+](=O)[O-])cc2)C(Cl)(Cl)Cl)cc1 (stereo not drawn) [XXVI]  Musca domestica Snaidm  SR, Musca domestica Snaidm      > 4
1  CCOc1ccc(C(Nc2ccccc2OCC)C(Cl)(Cl)Cl)cc1 (stereo not drawn) [XXI]  Musca domestica Snaidm  SR, Musca domestica Snaidm      > 5

Attention now turns to another entry.
Looking up COc1ccc(C(Nc2ccc(C)cc2C)C(Cl)(Cl)Cl)cc1 (stereo not drawn) [XXIV] , I found its SR, Musca domestica Snaidm recorded as 6.8
